biological target: System xC^- cystine/glutamate antiporter (SXC) (Rattus norvegicus, UniProt A0A8I6AB70); assay: [14C]-cystine uptake by LPS-activated primary microglia; assay type: cell-based
Sequence (A0A8I6AB70 1-502): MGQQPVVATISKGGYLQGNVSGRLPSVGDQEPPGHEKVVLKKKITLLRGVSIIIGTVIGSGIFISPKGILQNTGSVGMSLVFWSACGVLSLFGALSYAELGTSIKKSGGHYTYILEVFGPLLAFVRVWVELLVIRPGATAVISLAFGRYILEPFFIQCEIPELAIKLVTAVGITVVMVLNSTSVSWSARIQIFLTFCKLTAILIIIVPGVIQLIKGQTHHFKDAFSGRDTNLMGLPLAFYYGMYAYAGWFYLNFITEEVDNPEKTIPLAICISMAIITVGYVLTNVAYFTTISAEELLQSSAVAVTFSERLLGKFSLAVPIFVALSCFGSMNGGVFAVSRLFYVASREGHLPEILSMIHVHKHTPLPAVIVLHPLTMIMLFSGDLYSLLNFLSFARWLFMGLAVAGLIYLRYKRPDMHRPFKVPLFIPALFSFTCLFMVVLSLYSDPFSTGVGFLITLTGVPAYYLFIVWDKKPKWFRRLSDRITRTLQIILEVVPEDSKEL
Sequence (Q794F9 whole entry partner): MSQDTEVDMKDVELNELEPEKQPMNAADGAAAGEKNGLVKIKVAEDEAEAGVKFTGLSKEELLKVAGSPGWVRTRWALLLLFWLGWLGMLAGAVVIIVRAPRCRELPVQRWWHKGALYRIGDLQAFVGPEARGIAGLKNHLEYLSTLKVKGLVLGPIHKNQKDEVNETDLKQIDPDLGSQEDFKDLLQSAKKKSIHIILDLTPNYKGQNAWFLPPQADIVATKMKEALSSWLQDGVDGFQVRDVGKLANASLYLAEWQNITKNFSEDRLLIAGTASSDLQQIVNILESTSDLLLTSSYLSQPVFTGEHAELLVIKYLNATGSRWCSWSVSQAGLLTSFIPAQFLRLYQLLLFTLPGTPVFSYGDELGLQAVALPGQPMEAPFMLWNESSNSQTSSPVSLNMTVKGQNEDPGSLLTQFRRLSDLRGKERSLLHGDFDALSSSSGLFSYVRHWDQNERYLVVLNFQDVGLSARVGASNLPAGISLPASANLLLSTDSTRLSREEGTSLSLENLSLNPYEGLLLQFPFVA
recorded endpoint: Inhibition of cystine uptake (result in words)

[
  {
    "compound": "N[C@H](C(=O)O)c1ccc(C(=O)O)cc1 [S-4CPG, (S)-4-carboxyphenyl glycine]",
    "measured": "blocked"
  },
  {
    "compound": "O=C(O)c1cc(/N=N/c2ccc(S(=O)(=O)Nc3ccccn3)cc2)ccc1O",
    "measured": "blocked"
  },
  {
    "compound": "CCOc1ccccc1-n1c(C(C)N2CCN(C(=O)COc3ccc(Cl)cc3)CC2)nc2ccccc2c1=O (centres unmarked)",
    "measured": "blocked"
  }
]

Entry source: paper PMC5614578
